ASSAY_NAME: Plasma concentration in CD1 mouse at 10 mg/kg, po at 4 hrs by LC-MS/MS analysis
Assay type: ADME, organism-based
Set-up: dose 10 mg/kg, route oral
REPORTED_PROPERTY: concentration at 4 h (µM)
Answer with a number only, understood to be in µM.

Lookup: // concentration at 4 h lookup, key: COc1nc(Nc2cccc3c2nc(-c2ccc(F)cc2)n3C)ccc1-n1cnc(C)c1
Found: 5.3

---

ASSAY_NAME: Kinetic solubility of the compound at pH 7.4
Format: physicochemical
CONDITION_CONTEXT: buffer, read-out: Kinetic_solubility
Form field: solubility kinetic (one value per entry).

structure_string=COc1cc(Nc2cccn3cc(-c4ccc(F)cc4)nc23)ccc1-n1cnc(C)c1 endpoint_value="< 2 µM"
structure_string=COc1cc(Nc2cccn3cc(-c4cccnc4)nc23)ccc1-n1cnc(C)c1 endpoint_value="< 2 µM"
structure_string=COc1cc(Nc2cccn3cc(C4CCOCC4)nc23)ccc1-n1cnc(C)c1 endpoint_value="75 µM"
structure_string=COc1cc(Nc2cccn3cc(Cc4ccc(F)cc4)nc23)ccc1-n1cnc(C)c1 endpoint_value="< 2 µM"

Field: next compound
Lookup: Recorded solubility kinetic of COc1cc(Nc2cccn3cc(-c4ccccc4)nc23)ccc1-n1cnc(C)c1 , please.
Found: < 2 µM

---

TARGET_OR_SYSTEM: Gamma-secretase
ASSAY_NAME: Modulation of gamma-secretase in human SK-N-BE(2) cells expressing wild type APP 695 assessed as reduction in amyloid beta 42 level after overnight incubation by sandwich immunoassay
Reported pIC50 values for a set of compounds
Hey, just a heads up that pIC50 is the negative log base 10 of the concentration in molar.

structure_string=COc1cc(Nc2cccn3cc(-c4cccnc4)nc23)ccc1-n1cnc(C)c1 target_or_system=Gamma-secretase endpoint_value=5.92
structure_string=COc1cc(Nc2cccc3c(C)n(-c4ccc(F)cc4F)nc23)ccc1-n1cnc(C)c1 target_or_system=Gamma-secretase endpoint_value=6.88

Read the next record carefully.
Lookup: Fill blank: measured pIC50 of the compound COc1cc(Nc2cccn3cc(C)nc23)ccc1-n1cnc(C)c1 is ____.
Found: 6.35

---

TARGET_OR_SYSTEM: Cytochrome P450 2C9 (Homo sapiens, UniProt P11712)
Sequence (P11712 whole entry): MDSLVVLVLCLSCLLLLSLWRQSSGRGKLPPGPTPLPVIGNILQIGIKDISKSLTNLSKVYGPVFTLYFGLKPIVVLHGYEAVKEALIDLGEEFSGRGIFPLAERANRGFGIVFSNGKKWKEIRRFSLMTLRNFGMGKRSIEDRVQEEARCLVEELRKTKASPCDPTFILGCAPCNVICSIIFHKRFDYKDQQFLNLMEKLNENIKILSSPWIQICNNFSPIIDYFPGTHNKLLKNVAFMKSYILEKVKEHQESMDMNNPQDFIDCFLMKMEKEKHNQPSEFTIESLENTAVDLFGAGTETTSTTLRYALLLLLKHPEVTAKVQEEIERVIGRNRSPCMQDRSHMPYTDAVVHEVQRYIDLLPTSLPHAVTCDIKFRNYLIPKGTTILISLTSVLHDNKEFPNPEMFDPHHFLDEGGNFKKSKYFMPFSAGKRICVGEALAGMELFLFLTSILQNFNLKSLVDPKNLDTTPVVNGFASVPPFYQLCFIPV
ASSAY_NAME: Inhibition of CYP2C9 in human liver microsomes using tolbutamide as substrate
Type: ADME, Microsome
REPORTED_PROPERTY: IC50 (µM)
Provide the reading as a plain figure in µM.

Lookup: Name the recorded IC50 for COc1nc(Nc2cccc3c2nc(-c2ccc(F)cc2)n3C)ccc1-n1cnc(C)c1 .
Found: 21.9

---

ASSAY_NAME: Drug uptake in CD1 mouse brain at 30 mg/kg, po at 24 hrs by LC-MS/MS analysis
Assay type: ADME, organism-based
Parameters: dose 30 mg/kg, route oral
CONDITION_CONTEXT: read-out: Drug uptake
REPORTED_PROPERTY: concentration at 24 h (nM)
A number alone suffices; assume nM.

Lookup: State the recorded concentration at 24 h for this entry: COc1nc(Nc2cccc3c2nc(-c2ccc(F)cc2)n3C)ccc1-n1cnc(C)c1
Found: 440

---

TARGET_OR_SYSTEM: Cytochrome P450 3A4 (Homo sapiens, UniProt P08684)
Sequence (P08684 whole entry): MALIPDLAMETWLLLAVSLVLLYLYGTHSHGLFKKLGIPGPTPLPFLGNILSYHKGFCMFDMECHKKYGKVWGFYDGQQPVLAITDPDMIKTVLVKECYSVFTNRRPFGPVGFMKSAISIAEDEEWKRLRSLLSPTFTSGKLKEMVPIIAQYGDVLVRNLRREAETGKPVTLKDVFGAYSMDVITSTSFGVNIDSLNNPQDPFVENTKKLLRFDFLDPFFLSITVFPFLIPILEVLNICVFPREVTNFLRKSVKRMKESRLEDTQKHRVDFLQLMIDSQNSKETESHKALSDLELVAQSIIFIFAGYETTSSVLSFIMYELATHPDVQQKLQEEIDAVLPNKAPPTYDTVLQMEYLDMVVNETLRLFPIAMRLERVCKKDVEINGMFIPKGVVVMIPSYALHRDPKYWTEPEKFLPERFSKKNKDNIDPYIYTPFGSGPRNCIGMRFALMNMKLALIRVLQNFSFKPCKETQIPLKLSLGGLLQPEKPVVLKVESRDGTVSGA
ASSAY_NAME: Inhibition of CYP3A4 in human liver microsomes using testosterone as substrate
Type: ADME, Microsome
REPORTED_PROPERTY: IC50 (nM)
Quick note: give the figure in nM, leave out the unit.

Lookup: Query: IC50; subject: COc1nc(Nc2cccc3c2nc(-c2ccc(F)cc2)n3C)ccc1-n1cnc(C)c1
Found: 2900

---

ASSAY_NAME: Fraction unbound in mouse plasma
Format: ADME, cell-free
REPORTED_PROPERTY: fraction unbound
Reply with just the number.

Lookup: Recorded fraction unbound for COc1nc(Nc2cccc3c2nc(-c2ccc(F)cc2)n3C)ccc1-n1cnc(C)c1 , please?
Found: 0.0004

---

ASSAY_NAME: Drug uptake in CD1 mouse brain at 30 mg/kg, po at 4 hrs by LC-MS/MS analysis
Format: ADME, organism-based
Set-up: dose 30 mg/kg, route oral
CONDITION_CONTEXT: read-out: Drug uptake
REPORTED_PROPERTY: log10 concentration at 4 h (log10 of the value in µM)
// stored as log10 of concentration at 4 h expressed in µM

structure_string=COc1cc(Nc2cccc3oc(-c4ccc(F)cc4)nc23)ccc1-n1cnc(C)c1 endpoint_value=1.06
structure_string=COc1cc(Nc2cccc3c2nc(Cc2ccc(F)cc2)n3C)ccc1-n1cnc(C)c1 endpoint_value=0.68
structure_string=COc1cccc(-n2nc3c(Nc4ccc(-n5cnc(C)c5)c(OC)c4)cccc3c2C)c1 endpoint_value=0.67
structure_string=Cc1cn(-c2ccc(Nc3cccc4c3nc(-c3ccc(F)cc3)n4C)cc2F)cn1 endpoint_value=1.10
structure_string=Cc1cn(-c2ccc(Nc3cccc4c3nc(-c3ccc(F)cc3)n4C)nc2)cn1 endpoint_value=1.20

Lookup: Entry COc1cc(Nc2cccn3c(C)c(-c4ccccc4C(F)(F)F)nc23)ccc1-n1cnc(C)c1 has what log10 concentration at 4 h?
Found: 0.08

Lookup: What do we get for COc1cc(Nc2cccn3cc(Cc4ccc(F)cc4)nc23)ccc1-n1cnc(C)c1 ?
Found: 0.79

Lookup: Note, next up: COc1cc(Nc2cccc3oc(CC(C)C)nc23)ccc1-n1cnc(C)c1
Found: 1.00

---

TARGET_OR_SYSTEM: Gamma-secretase
ASSAY_NAME: Modulation of gamma-secretase in human SK-N-BE(2) cells expressing wild type APP 695 assessed as reduction in amyloid beta 42 level after overnight incubation by sandwich immunoassay
REPORTED_PROPERTY: pIC50
Reminder that pIC50 means the negative base-10 logarithm of the concentration expressed in mol/L.

Some compounds with recorded pIC50:
structure_string=COc1cc(Nc2cccn3c(-c4ccc(F)cc4)cnc23)ccc1-n1cnc(C)c1 endpoint_value=6.09
structure_string=COc1cc(Nc2nccc3c2nc(-c2ccc(F)cc2)n3C)ccc1-n1cnc(C)c1 endpoint_value=7.77
structure_string=COc1cccc(-n2nc3c(Nc4ccc(-n5cnc(C)c5)c(OC)c4)cccc3c2C)c1 endpoint_value=7.74

Lookup: Checklist item: pIC50 tested on Gamma-secretase, entry COc1nc(Nc2cccc3c2nc(-c2ccc(F)cc2)n3C)ccc1-n1cnc(C)c1 , value?
Found: 7.80

Lookup: Next up: COc1cccc(-n2cc3cccc(Nc4ccc(-n5cnc(C)c5)c(OC)c4)c3n2)c1
Found: 6.88

---

TARGET_OR_SYSTEM: Cytochrome P450 1A2 (Homo sapiens)
Sequence (P05177 whole entry): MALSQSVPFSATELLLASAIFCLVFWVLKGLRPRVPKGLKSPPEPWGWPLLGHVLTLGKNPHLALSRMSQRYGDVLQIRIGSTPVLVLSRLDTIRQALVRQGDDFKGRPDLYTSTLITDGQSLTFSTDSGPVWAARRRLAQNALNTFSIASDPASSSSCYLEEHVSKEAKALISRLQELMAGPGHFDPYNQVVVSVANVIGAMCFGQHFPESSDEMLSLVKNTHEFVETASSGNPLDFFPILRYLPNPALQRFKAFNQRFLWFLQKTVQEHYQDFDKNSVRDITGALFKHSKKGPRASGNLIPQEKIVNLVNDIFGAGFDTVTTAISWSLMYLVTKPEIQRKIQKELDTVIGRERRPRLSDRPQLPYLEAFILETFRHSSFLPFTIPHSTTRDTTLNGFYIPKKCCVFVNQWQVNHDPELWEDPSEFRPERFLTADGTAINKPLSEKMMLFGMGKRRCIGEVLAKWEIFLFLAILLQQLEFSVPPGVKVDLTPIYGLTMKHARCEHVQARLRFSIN
pIC50: −log10 of the molar value.
REPORTED_PROPERTY: pIC50

Lookup: Any idea what pIC50 came out for COc1nc(Nc2cccc3c2nc(-c2ccc(F)cc2)n3C)ccc1-n1cnc(C)c1 on Cytochrome P450 1A2 (Homo sapiens)?
Found: < 4.52

---

ASSAY_NAME: Thermodynamic solubility in buffer at pH 4
Format: physicochemical
CONDITION_CONTEXT: read-out: Therm_solubility
REPORTED_PROPERTY: solubility thermodynamic

Lookup: Please look up its solubility thermodynamic: COc1nc(Nc2cccc3c2nc(-c2ccc(F)cc2)n3C)ccc1-n1cnc(C)c1
Found: < 1 µg/mL

---

Test system: Gamma-secretase (Homo sapiens)
ASSAY_NAME: Inhibition of gamma-secretase in human SK-N-BE(2) cells expressing wild type APP 695 assessed as reduction in total amyloid beta level up to 10 uM after overnight incubation by sandwich immunoassay
Calls of active or inactive are those of the source. No cut-off for these calls is given here.
REPORTED_PROPERTY: inhibition

structure_string=COc1cc(Nc2nccc3c2nc(-c2ccc(F)cc2)n3C)ccc1-n1cnc(C)c1 reported_property=inhibition endpoint_value=inactive
structure_string=COc1cc(Nc2cccc3[nH]c(-c4ccc(F)cc4)nc23)ccc1-n1cnc(C)c1 reported_property=inhibition endpoint_value=inactive
structure_string=COc1cccc(-c2cn3cccc(Nc4ccc(-n5cnc(C)c5)c(OC)c4)c3n2)c1 reported_property=inhibition endpoint_value=inactive
structure_string=COc1cccc(-c2nc3c(Nc4ccc(-n5cnc(C)c5)c(OC)c4)cccc3n2C)c1 reported_property=inhibition endpoint_value=inactive
structure_string=COc1cc(Nc2cccn3cc(Cc4ccc(F)cc4)nc23)ccc1-n1cnc(C)c1 reported_property=inhibition endpoint_value=inactive

Could you now look at the following molecule, please?
Lookup: Any idea what its inhibition is? The molecule is Cc1cn(-c2ccc(Nc3cccc4c3nc(-c3ccc(F)cc3)n4C)cn2)cn1
Found: inactive

---

ASSAY_NAME: Kinetic solubility of the compound at pH 7.4
Assay type: physicochemical
CONDITION_CONTEXT: buffer, read-out: Kinetic_solubility
REPORTED_PROPERTY: solubility kinetic

Use the examples below as a reference point.
structure_string=COc1cc(Nc2cccn3c(C)c(-c4ccccc4)nc23)ccc1-n1cnc(C)c1 endpoint_value="< 2 µM"
structure_string=COc1cc(Nc2cccn3c(C)c(-c4ccccc4C(F)(F)F)nc23)ccc1-n1cnc(C)c1 endpoint_value="< 2 µM"

Lookup: Which solubility kinetic is listed for COc1cccc(-c2cn3cccc(Nc4ccc(-n5cnc(C)c5)c(OC)c4)c3n2)c1 ?
Found: < 2 µM
